System: HL-60(TB) leukemia
Experiment: NCI-60 one-dose screen, 48 h (100 = growth as untreated, 0 = no growth, -100 = all killed)
Details: 10 µM unless noted
This is part of a sample that, as a whole, favours compounds with a hit. Of some 83,000 tested, about 20% had one in any assay.
READOUT NAME: growth (%)
Your answer should be a plain number; it is taken to be in %.

Query: growth; subject: COc1ccc(-c2nc3ccccc3n2CC(=O)N=Nc2c(O)[nH]c3ccc(OC)cc23)cc1
37.6

Query: growth; subject: COc1ccc(-c2cc(C(=O)N=Nc3c(O)[nH]c4ccccc34)c3ccccc3n2)cc1
56.2

Query: growth; subject: COc1cc2nc(SCc3ccccc3)n(-c3ccc(Cl)cc3)c(=O)c2cc1OC
34.8

Query: growth; subject: Cc1ccc(C(C(=O)NC2CCCCC2)N(Cc2ccccc2Cl)C(=O)c2ccc(CN3CCOCC3)o2)o1 (stereo not given)
84.6

Query: growth; subject: COc1cc(C=O)ccc1OC(=O)c1cc(-c2ccc(C)cc2)n(-c2ccc(S(C)(=O)=O)cc2)n1
83.4
